Ref: paper PMC6934973

# method-notes: Parallel Artificial Membrane Permeability Assay (PAMPA)
# Assay type: in vitro ADME
# experimental-parameters: 200 μM, pH 7.4, 20% 1-propanol cosolvent, 4 h
quantity-measured: % PAMPA Transport after 4h (%)
Answer in %, number only, no unit symbol.

compound | % PAMPA Transport after 4h, %
CO[C@]12CC[C@@]3(C/C1=C(/C)C(C)(C)C)[C@H]1Cc4ccc(O)c5c4[C@@]3(CCN1C(=O)[C@H](CC(C)C)NC(=O)[C@H](Cc1ccccc1)NC(=O)CNC(=O)CNC(=O)[C@@H](N)Cc1ccc(O)cc1)[C@H]2O5 | 6.8

Input line: # lookup: % PAMPA Transport after 4h of CSCC[C@H](NC(=O)[C@H](Cc1ccccc1)NC(=O)CNC(=O)CNC(=O)[C@@H](N)Cc1ccc(O)cc1)C(=O)O [Standard Met-enkephalin, Met-enkephalin, reference compound]
Output line: 0.2

Input line: # lookup: % PAMPA Transport after 4h of "CO[C@]12CC[C@@]3(C/C1=C(\C)C(C)(C)C)[C@H]1Cc4ccc(O)c5c4[C@@]3(CCN1C(=O)[C@H](CC(C)C)NC(=O)[C@H](Cc1ccccc1)NC(=O)CNC(=O)CNC(=O)[C@@H](N)Cc1ccc(O)cc1)[C@H]2O5"
Output line: 4.3

Input line: # lookup: % PAMPA Transport after 4h of "COc1ccc2c3c1O[C@@H]1[C@]34CCN(C(=O)[C@H](CCSC)NC(=O)[C@H](Cc3ccccc3)NC(=O)CNC(=O)CNC(=O)[C@@H](N)Cc3ccc(O)cc3)[C@H](C2)[C@]42CC[C@@]1(OC)/C(=C(\C)C(C)(C)C)C2"
Output line: 1.6
